Origin of measurements: the Immune Epitope Database (IEDB)

- SYSTEM: HLA-A*02:01
- PROCEDURE_TEXT: IEDB peptide-MHC binding, purified MHC/competitive/radioactivity; filed as Kd, often an IC50 or EC50 that approximates it; bounds were set here for any values at or beyond the usual limits of such assays
- MEASUREMENT_CONTEXT: source organism: Mammarenavirus guanaritoense
PROPERTY_NAME: pKd
As a rule, pKd stands for the negative log10 of the concentration, concentration in M.

Qu. Can you look up the measured pKd of AQPGLLSYV for me?
Ans. 6.79

* * *

Each entry below carries its recorded pKd.
- SYSTEM: HLA-A*11:01
- PROCEDURE_TEXT: IEDB peptide-MHC binding, purified MHC/competitive/radioactivity; filed as Kd, often an IC50 or EC50 that approximates it; bounds were set here for any values at or beyond the usual limits of such assays
- MEASUREMENT_CONTEXT: source organism: Mammarenavirus brazilense
Please report pKd as the negative decimal logarithm of the molar concentration, giving only the number.

Use the examples below as a reference point.
SSQRDTILK
8.03
KCLNIMLGK
6.17

Field: next sequence
Qu. Could you share which pKd value was measured for STYYVHENK ?
Ans. 8.22
